Origin of values: PubChem BioAssay AID1030

molecular target: Aldehyde dehydrogenase 1A1 (Homo sapiens); assay: qHTS Assay for Inhibitors of Aldehyde Dehydrogenase 1 (ALDH1A1); details: Purified ALDH1A1, NADH fluorescence, propionaldehyde substrate; series mostly up to 75.3 µM
About 16,000 (7.3%) of roughly 220,000 compounds were called active. Not shown: some 25% with an inconclusive outcome. Calls follow the shape of the dose curve; as a rule, active = well fitted inhibition curve with a large enough effect (not every such curve was filed as active); inconclusive = small, poorly fitted or top-dose-only effect, or another doubt; inactive = no such curve, though single readings can be large or run the other way. The list comes from a sample in which actives are over-represented; it also holds close analogues and randomly drawn compounds.
Outcome codes: yes (1) for active, no (0) for inactive

{"molecule": "O=C(O)Cc1ccc(NC(=O)c2cccs2)cc1", "group.label": "no (0)"}
{"molecule": "COC(=O)c1cc(NC(=O)c2nn(C)c(=O)c3ccccc23)cc(C(=O)OC)c1", "group.label": "no (0)"}
{"molecule": "O=C(COC(=O)Cn1cnc2ccccc2c1=O)NCc1ccccc1Cl", "group.label": "no (0)"}
{"molecule": "O=C(O)CCC(=O)N(Cc1cccs1)Cc1cccs1", "group.label": "no (0)"}
{"molecule": "COc1cccc(CNC(=O)CCN2C(=S)NC(C)(C)CC2C)c1 (configuration not stated)", "group.label": "no (0)"}
{"molecule": "COc1ccccc1Oc1nc(-c2cccnc2)nc2ccccc12", "group.label": "yes (1)"}
{"molecule": "CCSc1nc(C)c(CCOc2cccc(C)c2)c(=O)[nH]1", "group.label": "no (0)"}
{"molecule": "COc1ccc2nccc(C(=O)O)c2c1", "group.label": "no (0)"}
{"molecule": "Cc1cccc(C)c1NC(=O)C1(N(C(=O)c2ccccn2)c2ccc(O)cc2)CCCCC1", "group.label": "no (0)"}
{"molecule": "CC(=O)N1CCN(S(=O)(=O)c2c(F)cc(F)c(Cl)c2F)CC1", "group.label": "no (0)"}
{"molecule": "Cc1nn(C)c(C)c1S(=O)(=O)N1CCC(CO)(Cc2ccc(Cl)cc2)CC1", "group.label": "no (0)"}
{"molecule": "S=c1[nH]nc2c3c4c(sc3ncn12)CCCC4", "group.label": "yes (1)"}

----------
target: Aldehyde dehydrogenase 1A1 (Homo sapiens); assay: qHTS Assay for Inhibitors of Aldehyde Dehydrogenase 1 (ALDH1A1); conditions: Purified ALDH1A1, NADH fluorescence, propionaldehyde substrate; series mostly up to 75.3 µM; also: potency is read from the fitted curve at half-maximal effect
Screen size: about 220,000 compounds; about 16,000 (7.3%) were called active. Not shown: some 25% with an inconclusive outcome. Only a selection was taken, and actives are over-represented in it overall.

{"molecule": "COc1ccc(OCCCn2cccc2/C=C2/C(=N)N3OC(C)=CC3=NC2=O)cc1", "tested.system": "Aldehyde dehydrogenase 1A1 (Homo sapiens)", "Potency": "inactive"}
{"molecule": "Cc1cccc(N(C(=O)Cc2cccs2)C(C(=O)NCc2ccco2)c2ccncc2)c1 (configuration not stated)", "tested.system": "Aldehyde dehydrogenase 1A1 (Homo sapiens)", "Potency": "inactive"}
{"molecule": "COc1cc(CN2CCN(Cc3ccc(C)cc3)CC2)c([N+](=O)[O-])cc1OC", "tested.system": "Aldehyde dehydrogenase 1A1 (Homo sapiens)", "Potency": "17.8 µM (active)"}
{"molecule": "CCO[C@H]1OC(C(=O)N2CCN(Cc3ccccc3)CC2)=C[C@@H](c2cn(C(C)=O)c3ccccc23)[C@@H]1CCCO", "tested.system": "Aldehyde dehydrogenase 1A1 (Homo sapiens)", "Potency": "inactive"}
{"molecule": "O=C(O)c1ccccc1-c1ccccc1C(=O)Nc1nccs1", "tested.system": "Aldehyde dehydrogenase 1A1 (Homo sapiens)", "Potency": "inactive"}
{"molecule": "Cc1noc(C)c1COC(=O)COc1ccc(-c2ccccc2)cc1", "tested.system": "Aldehyde dehydrogenase 1A1 (Homo sapiens)", "Potency": "inactive"}
{"molecule": "O=C(CSc1ncnc2c1nnn2Cc1ccc(F)cc1)NC1CCCC1", "tested.system": "Aldehyde dehydrogenase 1A1 (Homo sapiens)", "Potency": "inactive"}
{"molecule": "CCOC(=O)CNC(=O)N1c2ccccc2Sc2ccccc21", "tested.system": "Aldehyde dehydrogenase 1A1 (Homo sapiens)", "Potency": "inactive"}
{"molecule": "CC1CC(C)CN(C(=O)CSc2nnc(CSc3ncccn3)n2C)C1 (configuration not stated)", "tested.system": "Aldehyde dehydrogenase 1A1 (Homo sapiens)", "Potency": "inactive"}
{"molecule": "CCCn1c(SCC(=O)Nc2ccc(C)c(S(=O)(=O)N3CCOCC3)c2)n[nH]c1=O", "tested.system": "Aldehyde dehydrogenase 1A1 (Homo sapiens)", "Potency": "inactive"}
{"molecule": "COc1ccc(NC(=O)Cn2c(-c3ccc(OC)cc3)cn(-c3ccc(C)cc3)c2=O)cc1", "tested.system": "Aldehyde dehydrogenase 1A1 (Homo sapiens)", "Potency": "15.8 µM (active)"}
{"molecule": "CCOC(=O)c1ccccc1NC(=S)N1CCC(C(N)=O)CC1", "tested.system": "Aldehyde dehydrogenase 1A1 (Homo sapiens)", "Potency": "inactive"}
{"molecule": "COc1ccc(C(CC(=O)Nc2ccc(C)cc2)NC(=O)C(F)(F)F)cc1 (configuration not stated)", "tested.system": "Aldehyde dehydrogenase 1A1 (Homo sapiens)", "Potency": "inactive"}
{"molecule": "CC(C)(C)NC(=O)CN(C(=O)c1ccc(Cl)nc1)c1cccc2ccccc12", "tested.system": "Aldehyde dehydrogenase 1A1 (Homo sapiens)", "Potency": "inactive"}
{"molecule": "COCCn1c(C)cc(C2=NNC(=Nc3ccc(F)cc3)SC2)c1C", "tested.system": "Aldehyde dehydrogenase 1A1 (Homo sapiens)", "Potency": "10 µM (active)"}
{"molecule": "Cc1ccc(OC(=O)CCC(=O)Nc2ccc(Br)cc2)cc1", "tested.system": "Aldehyde dehydrogenase 1A1 (Homo sapiens)", "Potency": "inactive"}
{"molecule": "CC(C)(C)n1cnnc1Sc1ccc([N+](=O)[O-])cn1", "tested.system": "Aldehyde dehydrogenase 1A1 (Homo sapiens)", "Potency": "inactive"}
{"molecule": "O=C(c1ccccc1Cl)N(Cc1ccccc1F)N1C(=O)CCCC1=O", "tested.system": "Aldehyde dehydrogenase 1A1 (Homo sapiens)", "Potency": "inactive"}
{"molecule": "O=C(N/C(=C\\c1ccc(F)cc1)C(=O)N1CCCCCC1)c1ccccc1", "tested.system": "Aldehyde dehydrogenase 1A1 (Homo sapiens)", "Potency": "inactive"}
{"molecule": "CC(C)(C)c1cc(P(=O)(c2ccccc2)c2ccccc2)ccc1O", "tested.system": "Aldehyde dehydrogenase 1A1 (Homo sapiens)", "Potency": "inactive"}
{"molecule": "O=C(c1ccc(Cl)cc1)N1N=C(c2ccccn2)CC1(O)C(F)(F)F (configuration not stated)", "tested.system": "Aldehyde dehydrogenase 1A1 (Homo sapiens)", "Potency": "inactive"}
{"molecule": "CC(=O)Nc1ccn(Cc2c(F)cccc2Cl)n1", "tested.system": "Aldehyde dehydrogenase 1A1 (Homo sapiens)", "Potency": "inactive"}
{"molecule": "Nc1ccc(C(=O)OCC(=O)NC2CCCc3ccccc32)cc1[N+](=O)[O-] (configuration not stated)", "tested.system": "Aldehyde dehydrogenase 1A1 (Homo sapiens)", "Potency": "inactive"}
{"molecule": "CCOCCCNC(=S)N1CCC(NC(=O)C2CCCCC2)CC1", "tested.system": "Aldehyde dehydrogenase 1A1 (Homo sapiens)", "Potency": "inactive"}
{"molecule": "COCCNc1cc(NCCOC)c([N+](=O)[O-])cc1[N+](=O)[O-]", "tested.system": "Aldehyde dehydrogenase 1A1 (Homo sapiens)", "Potency": "inactive"}
{"molecule": "COc1ccc(S(=O)(=O)Nc2ccc(S(=O)(=O)N3CCCCC3)cc2)cc1OC", "tested.system": "Aldehyde dehydrogenase 1A1 (Homo sapiens)", "Potency": "0.562 µM (active)"}
{"molecule": "CC1(C)CC(=O)C=C(N2CCOCC2)C1", "tested.system": "Aldehyde dehydrogenase 1A1 (Homo sapiens)", "Potency": "inactive"}
{"molecule": "COC(=O)C(C)NC(=O)COc1ccc2ccccc2c1 (configuration not stated)", "tested.system": "Aldehyde dehydrogenase 1A1 (Homo sapiens)", "Potency": "inactive"}
{"molecule": "CC(=O)NC1(c2ccc(F)cc2)CCN(C(=O)c2c(F)cccc2F)CC1", "tested.system": "Aldehyde dehydrogenase 1A1 (Homo sapiens)", "Potency": "inactive"}
{"molecule": "O=C(Nc1ccccc1C(=O)N1CCOCC1)c1ccc(CSc2ccccc2)cc1", "tested.system": "Aldehyde dehydrogenase 1A1 (Homo sapiens)", "Potency": "inactive"}
{"molecule": "CCn1c(CSc2ncccn2)nnc1SCC(=O)N1c2ccccc2CC1C (configuration not stated)", "tested.system": "Aldehyde dehydrogenase 1A1 (Homo sapiens)", "Potency": "25.1 µM (active)"}
{"molecule": "COC(=O)[C@@H](NC(=O)NCc1cccc(OC)c1)C(C)C", "tested.system": "Aldehyde dehydrogenase 1A1 (Homo sapiens)", "Potency": "10 µM (active)"}

----------
target: Aldehyde dehydrogenase 1A1 (Homo sapiens); assay: qHTS Assay for Inhibitors of Aldehyde Dehydrogenase 1 (ALDH1A1); settings: Purified ALDH1A1, NADH fluorescence, propionaldehyde substrate; series mostly up to 75.3 µM
About 16,000 (7.3%) of roughly 220,000 compounds were called active. Not shown: some 25% with an inconclusive outcome. The call rests on the fitted dose curve; in most records, active means well fitted inhibition curve with a large enough effect (not every such curve was filed as active); inconclusive means small, poorly fitted or top-dose-only effect, or another doubt; inactive means no such curve, though single readings can be large or run the other way. The list comes from a sample in which actives are over-represented; it also holds close analogues and randomly drawn compounds.
Outcome codes: true (1) for active, false (0) for inactive

{"compound": "Cc1ccc(C(=O)N/C(=C/c2cccs2)C(=O)NCC2CCCO2)cc1 (stereo not drawn)", "group.label": "false (0)"}
{"compound": "CN(C)c1ccc(/C=C/C(=O)c2ccc(C(C)(C)C)cc2)cc1[N+](=O)[O-]", "group.label": "false (0)"}
{"compound": "O=C1Nc2cc(Cl)c(Cl)cc2N(O)N1c1ccccc1Cl", "group.label": "false (0)"}
{"compound": "CSc1ccc(CNCCN2CCOCC2)cc1", "group.label": "false (0)"}
{"compound": "Cc1cccc(C2c3[nH]c4ccccc4c3CCN2C(=O)c2cc(-c3cccn3C)n[nH]2)n1 (stereo not drawn)", "group.label": "false (0)"}
{"compound": "Cn1c(SCc2c(F)cccc2Cl)nnc1-c1cnccn1", "group.label": "true (1)"}
{"compound": "S=C(NC1CCCCC1)NN1CCOCC1", "group.label": "false (0)"}
{"compound": "Cc1cc(C)c(C(N)=O)c(Cl)n1", "group.label": "false (0)"}
{"compound": "O=C(NCc1ccccn1)c1cc(Br)ccc1Cl", "group.label": "false (0)"}
{"compound": "CN(C)c1ccc(/C=C/C(=O)c2ccc(O)cc2)cc1[N+](=O)[O-]", "group.label": "true (1)"}
{"compound": "Cc1cc(/C=C(/C#N)C(=O)Nc2ccc(Cl)cc2)c(C)n1-c1cccnc1", "group.label": "false (0)"}
{"compound": "c1csc(-c2nnc(COc3ccc4c(c3)OCO4)o2)c1", "group.label": "false (0)"}
{"compound": "COC(=O)C(C(=O)OC)C1c2ccccc2C=C(C2CC2)N1C(=O)OC (stereo not drawn)", "group.label": "false (0)"}
{"compound": "Cc1cc(NC(=O)CSc2nccn2-c2ccc([N+](=O)[O-])cc2)no1", "group.label": "false (0)"}
{"compound": "O=C(/C=C/c1ccc2c(c1)OCCO2)c1ccc(O)cc1", "group.label": "false (0)"}
{"compound": "CC(CC(=O)O)CC(=O)NNC(=O)c1cccc(Br)c1 (stereo not drawn)", "group.label": "false (0)"}
{"compound": "O=C(Nc1ccccc1)N1CCN(C(=O)Nc2ccccc2)CC1", "group.label": "false (0)"}
{"compound": "Cc1c(CCC(=O)O)c(=O)oc2cc3occ(-c4ccccc4)c3cc12", "group.label": "false (0)"}
